# SYSTEM: His-tagged recombinant human Gal-3 (hGal-3) (Homo sapiens)
# ASSAY: Gal-3 HTRF assay (His-tagged hGal-3 / B-ASF)
# TEST SETTINGS: hGal-3 15 nM, B-ASF 15 nM, room temperature, three replicates
Entries and their IC50
# unit: nM | format: bare number

Completed entries (count: 3):
[[record]]
compound = "Cc1nc([C@H]2O[C@@H](CO)[C@@H](O)[C@@H](n3cc(-c4cc(F)c(Cl)c(F)c4)nn3)[C@@H]2OCC(=O)NCCCCNC(=O)CO[C@@H]2[C@@H](n3cc(-c4cc(F)c(Cl)c(F)c4)nn3)[C@@H](O)[C@@H](CO)O[C@H]2c2nc(C)nn2-c2cc(Cl)ccc2Cl)n(-c2cc(Cl)ccc2Cl)n1 [Example 12]"
system = "His-tagged recombinant human Gal-3 (hGal-3) (Homo sapiens)"
measured_endpoint = "IC50"
readout_unit = "nM"
result_value = 1

[[record]]
compound = "Cc1nc([C@H]2O[C@@H](CO)[C@@H](O)[C@@H](n3cc(-c4ccc(Cl)c(F)c4)nn3)[C@@H]2OCCCCCCCCCCO[C@@H]2[C@@H](n3cc(-c4ccc(Cl)c(F)c4)nn3)[C@@H](O)[C@@H](CO)O[C@H]2c2nc(C)nn2-c2cc(Cl)ccc2Cl)n(-c2cc(Cl)ccc2Cl)n1 [Example 16]"
system = "His-tagged recombinant human Gal-3 (hGal-3) (Homo sapiens)"
measured_endpoint = "IC50"
readout_unit = "nM"
result_value = 10000

[[record]]
compound = "Cc1nc([C@H]2O[C@@H](CO)[C@@H](O)[C@@H](n3cc(-c4cc(F)c(Cl)c(F)c4)nn3)[C@@H]2OCC(=O)NCCCCCCNC(=O)CO[C@@H]2[C@@H](n3cc(-c4cc(F)c(Cl)c(F)c4)nn3)[C@@H](O)[C@@H](CO)O[C@H]2c2nc(C)nn2-c2cc(Cl)ccc2Cl)n(-c2cc(Cl)ccc2Cl)n1 [Example 9]"
system = "His-tagged recombinant human Gal-3 (hGal-3) (Homo sapiens)"
measured_endpoint = "IC50"
readout_unit = "nM"
result_value = 6


Consider the compound Cc1nc(C2OC(CO)C(O)C(n3cc(-c4cc(F)c(F)c(F)c4)nn3)C2OC(=O)NCCCCNC(=O)OC2C(c3nc(C)nn3-c3cc(Cl)ccc3Cl)OC(CO)C(O)C2n2cc(-c3cc(F)c(F)c(F)c3)nn2)n(-c2cc(Cl)ccc2Cl)n1 (stereo not shown) [Example 18] and give its measured IC50.
19

----------
# SYSTEM: His-tagged recombinant human Gal-3 (hGal-3) (Homo sapiens)
# ASSAY: Gal-3 HTRF assay (His-tagged hGal-3 / B-ASF)
# TEST SETTINGS: hGal-3 15 nM, B-ASF 15 nM, room temperature, three replicates
MEASURED ENDPOINT: IC50 (nM)
Form entry: value (nM) — number only.

Guide cases for IC50, answers given:
[[record]]
sample_smiles = "Cc1nc([C@H]2O[C@@H](CO)[C@@H](O)[C@@H](n3cc(-c4cc(F)c(Cl)c(F)c4)nn3)[C@@H]2OCC(=O)NCCNC(=O)CO[C@@H]2[C@@H](n3cc(-c4cc(F)c(Cl)c(F)c4)nn3)[C@@H](O)[C@@H](CO)O[C@H]2c2nc(C)nn2-c2cc(Cl)ccc2Cl)n(-c2cc(Cl)ccc2Cl)n1"
result_value = 1

[[record]]
sample_smiles = "Cc1nc([C@H]2O[C@@H](CO)[C@@H](O)[C@@H](n3cc(-c4cc(F)c(Cl)c(F)c4)nn3)[C@@H]2OCC(=O)NCCCCCCCNC(=O)CO[C@@H]2[C@@H](n3cc(-c4cc(F)c(Cl)c(F)c4)nn3)[C@@H](O)[C@@H](CO)O[C@H]2c2nc(C)nn2-c2cc(Cl)ccc2Cl)n(-c2cc(Cl)ccc2Cl)n1"
result_value = 10


With those in mind, consider the next molecule.
Which IC50 is listed for Cc1nc([C@H]2O[C@@H](CO)[C@@H](O)[C@@H](n3cc(-c4cc(F)c(Cl)c(F)c4)nn3)[C@@H]2OCC(=O)NCCCCCNC(=O)CO[C@@H]2[C@@H](n3cc(-c4cc(F)c(Cl)c(F)c4)nn3)[C@@H](O)[C@@H](CO)O[C@H]2c2nc(C)nn2-c2cc(Cl)ccc2C(F)(F)F)n(-c2cc(Cl)ccc2C(F)(F)F)n1 ?
1

----------
# SYSTEM: His-tagged recombinant human Gal-3 (hGal-3) (Homo sapiens, UniProt P17931)
# Sequence (P17931 whole entry): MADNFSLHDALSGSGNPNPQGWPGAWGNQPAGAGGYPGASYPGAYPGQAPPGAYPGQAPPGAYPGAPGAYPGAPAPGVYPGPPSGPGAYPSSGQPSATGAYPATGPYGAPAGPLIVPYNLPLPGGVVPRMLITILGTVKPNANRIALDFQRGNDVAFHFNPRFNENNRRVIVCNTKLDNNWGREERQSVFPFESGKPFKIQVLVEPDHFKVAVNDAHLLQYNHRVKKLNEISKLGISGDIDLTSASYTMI
# ASSAY: Gal-3 HTRF assay (His-tagged hGal-3 / B-ASF)
# TEST SETTINGS: hGal-3 15 nM, B-ASF 15 nM, room temperature, three replicates
Measured IC50 of individual entries
Respond with the bare value in nM.

[[record]]
molecule = "Cc1nc([C@H]2O[C@@H](CO)[C@@H](O)[C@@H](n3cc(-c4cc(F)c(Cl)c(F)c4)nn3)[C@@H]2OCC(=O)N2CCN(C(=O)CO[C@@H]3[C@@H](n4cc(-c5cc(F)c(Cl)c(F)c5)nn4)[C@@H](O)[C@@H](CO)O[C@H]3c3nc(C)nn3-c3cc(Cl)ccc3Cl)CC2)n(-c2cc(Cl)ccc2Cl)n1 [Example 22]"
readout_unit = "nM"
result_value = 4


Let us move to another entry and its IC50.
What measured IC50 goes with Cc1nc([C@H]2O[C@@H](CO)[C@@H](O)[C@@H](n3cc(-c4ccc(Cl)c(F)c4)nn3)[C@@H]2OCC(=O)NCCCCCNC(=O)CO[C@@H]2[C@@H](n3cc(-c4ccc(Cl)c(F)c4)nn3)[C@@H](O)[C@@H](CO)O[C@H]2c2nc(C)nn2-c2cc(Cl)ccc2Cl)n(-c2cc(Cl)ccc2Cl)n1 [Example 5] ?
10

----------
# SYSTEM: His-tagged recombinant human Gal-3 (hGal-3) (Homo sapiens, UniProt P17931)
# ASSAY: Gal-3 HTRF assay (His-tagged hGal-3 / B-ASF)
# TEST SETTINGS: hGal-3 15 nM, B-ASF 15 nM, room temperature, three replicates
In this section, each of the molecules is paired with its reported pIC50.
Quick note: pIC50 means taking -log10 of the concentration in moles per liter.

[[record]]
sample_smiles = "Cc1nc([C@H]2O[C@@H](CO)[C@@H](O)[C@@H](n3cc(-c4cc(F)c(Cl)c(F)c4)nn3)[C@@H]2OCC(=O)NCCCCCNC(=O)CO[C@@H]2[C@@H](n3cc(-c4cc(F)c(Cl)c(F)c4)nn3)[C@@H](O)[C@@H](CO)O[C@H]2c2nc(C)nn2-c2cc(Cl)ccc2Cl)n(-c2cc(Cl)ccc2Cl)n1"
result_value = 9.00


Now look at this one.
// query pIC50 value for entry Cc1nc([C@H]2O[C@@H](CO)[C@@H](O)[C@@H](n3cc(-c4cc(F)c(Cl)c(F)c4)nn3)[C@@H]2OCC(=O)NCCCCNC(=O)CO[C@@H]2[C@@H](n3cc(-c4cc(F)c(Cl)c(F)c4)nn3)[C@@H](O)[C@@H](CO)O[C@H]2c2nc(C)nn2-c2cc(Cl)ccc2C(F)(F)F)n(-c2cc(Cl)ccc2C(F)(F)F)n1
9.00

----------
Reported pIC50 by item:
# SYSTEM: His-tagged recombinant human Gal-3 (hGal-3) (Homo sapiens)
# ASSAY: Gal-3 HTRF assay (His-tagged hGal-3 / B-ASF)
# TEST SETTINGS: hGal-3 15 nM, B-ASF 15 nM, room temperature, three replicates
Scale: negative log10 of molar concentration, which is what pIC50 denotes.

Solved entries (count: 2):
[[record]]
sample_smiles = "Cc1nc([C@H]2O[C@@H](CO)[C@@H](O)[C@@H](n3cc(-c4cc(F)c(Cl)c(F)c4)nn3)[C@@H]2OCC(=O)NCCCNC(=O)CO[C@@H]2[C@@H](n3cc(-c4cc(F)c(Cl)c(F)c4)nn3)[C@@H](O)[C@@H](CO)O[C@H]2c2nc(C)nn2-c2cc(Cl)ccc2C(F)(F)F)n(-c2cc(Cl)ccc2C(F)(F)F)n1"
measured_endpoint = "pIC50"
result_value = 9.00

[[record]]
sample_smiles = "Cc1nc([C@H]2O[C@@H](CO)[C@@H](O)[C@@H](n3cc(-c4cc(F)c(Cl)c(F)c4)nn3)[C@@H]2OCC(=O)N(C)CCN(C)C(=O)CO[C@@H]2[C@@H](n3cc(-c4cc(F)c(Cl)c(F)c4)nn3)[C@@H](O)[C@@H](CO)O[C@H]2c2nc(C)nn2-c2cc(Cl)ccc2Cl)n(-c2cc(Cl)ccc2Cl)n1"
measured_endpoint = "pIC50"
result_value = 8.70


# next compound below
Observed pIC50 on His-tagged recombinant human Gal-3 (hGal-3) (Homo sapiens) for Cc1nc([C@H]2O[C@@H](CO)[C@@H](O)[C@@H](n3cc(-c4cc(F)c(Cl)c(F)c4)nn3)[C@@H]2OC(=O)NCCCNC(=O)O[C@@H]2[C@@H](n3cc(-c4cc(F)c(Cl)c(F)c4)nn3)[C@@H](O)[C@@H](CO)O[C@H]2c2nc(C)nn2-c2cc(Cl)ccc2Cl)n(-c2cc(Cl)ccc2Cl)n1 , please.
6.96
